- System: Human immunodeficiency virus 1
- PROTOCOL DETAILS: Ratio of IC50 for HIV-1 NL4-3 harboring RT-K103N/Y188L double mutant infected in HEK293T cells co-expressing vesicular stomatitis virus glycoprotein to IC50 for wild-type HIV-1 NL4-3 infected in HEK293T cells co-expressing vesicular stomatitis virus glycoprotein
- Assay type: functional, HEK-293T
# Ratio IC50 listing for each entry below
REPORTED PROPERTY: Ratio IC50

• Clc1cccc(Cl)c1Cc1sc(NCc2ccc3c(c2)CCO3)nc1-c1ccccc1 = >161.8
• COc1ccccc1Cc1sc(NCc2ccc3c(c2)CCO3)nc1-c1ccc(F)cc1F = >223.7
• Fc1cc(F)cc(Cc2sc(NCc3ccc4c(c3)CCO4)nc2-c2ccccc2)c1 = >268.8
• Cc1ccnc2c1NC(=O)c1cccnc1N2C1CC1 [NEVIRAPINE] = >322
• COc1ccccc1Cc1sc(NCc2ccc3c(c2)CCO3)nc1-c1ccccc1 = >223.7

====

- Tested on: Human immunodeficiency virus 1
- PROTOCOL DETAILS: Antiviral activity against HIV-1 NL4-3 harboring RT-Y181C mutant infected in HEK293T cells coexpressing vesicular stomatitis virus glycoprotein pretreated with cells for 15 mins followed by viral infection measured after 48 hrs by luciferase reporter gene assay
- Assay type: functional, cell-based
- RECORDED CONDITIONS: hek-293t
# IC50 listing for each entry below
REPORTED PROPERTY: IC50 (nM)

* Fc1cc(F)cc(Cc2sc(NCc3ccc4c(c3)CCO4)nc2-c2ccc(F)cc2F)c1 | 1100
* Fc1cc(F)cc(Cc2sc(NCc3ccc4c(c3)CCO4)nc2-c2ccccc2Cl)c1 | 400
* COc1ccccc1Cc1sc(NCc2ccc3c(c2)CCO3)nc1-c1ccccc1 | 512
* COc1ccccc1Cc1sc(NCc2ccc3c(c2)CCO3)nc1-c1ccc(F)cc1F | 130
* Clc1cccc(Cl)c1Cc1sc(NCc2ccc3c(c2)CCO3)nc1-c1ccccc1 | 390
* Fc1cc(F)cc(Cc2sc(NCc3ccc4c(c3)CCO4)nc2-c2ccccc2)c1 | 5560

====

- Test system: Human immunodeficiency virus 1
- PROTOCOL DETAILS: Ratio of IC50 for HIV-1 NL4-3 harboring RT-Y181C mutant infected in HEK293T cells co-expressing vesicular stomatitis virus glycoprotein to IC50 for wild-type HIV-1 NL4-3 infected in HEK293T cells co-expressing vesicular stomatitis virus glycoprotein
- Assay type: functional, HEK-293T
Assign labels as follows, please: Yes for Ratio IC50 below 80; No for Ratio IC50 equal to or exceeding 80.

- Clc1cccc(Cl)c1Cc1sc(NCc2ccc3c(c2)CCO3)nc1-c1ccccc1: Yes
- Fc1cc(F)cc(Cc2sc(NCc3ccc4c(c3)CCO4)nc2-c2ccccc2Cl)c1: Yes
- Fc1cc(F)cc(Cc2sc(NCc3ccc4c(c3)CCO4)nc2-c2ccccc2)c1: No
- Cc1ccnc2c1NC(=O)c1cccnc1N2C1CC1 [NEVIRAPINE]: No
- COc1ccccc1Cc1sc(NCc2ccc3c(c2)CCO3)nc1-c1ccccc1: Yes
- COc1ccccc1Cc1sc(NCc2ccc3c(c2)CCO3)nc1-c1ccc(F)cc1F: Yes

====

# pIC50 listing for each entry below
- Test system: Human immunodeficiency virus 1
- PROTOCOL DETAILS: Antiviral activity against HIV-1 NL4-3 harboring RT-K103N/P225H double mutant infected in HEK293T cells coexpressing vesicular stomatitis virus glycoprotein pretreated with cells for 15 mins followed by viral infection measured after 48 hrs by luciferase reporter gene assay
- Type: functional, cell-based
- RECORDED CONDITIONS: hek-293t
pIC50: −log10 of the molar value.
REPORTED PROPERTY: pIC50

- Fc1cc(F)cc(Cc2sc(NCc3ccc4c(c3)CCO4)nc2-c2ccccc2)c1: 5.30
- COc1ccccc1Cc1sc(NCc2ccc3c(c2)CCO3)nc1-c1ccccc1: 5.30
- COc1ccccc1Cc1sc(NCc2ccc3c(c2)CCO3)nc1-c1ccc(F)cc1F: 5.98
